- Tested on: Septoria tritici (leaf blotch)
- procedure summary: Test 1 greenhouse foliar spray screen, leaf blotch on wheat
- Type: in vivo
- condition: Zymoseptoria tritici; Test 1, foliar spray on wheat; disease control rating at 400 ppm / 100 ppm; read-out: LEAF BLOT
# reported pest or weed control at 400 ppm; entries follow

Examples with answers:
INSERT INTO measurements (compound, readout_kind, test_value) VALUES
  ('Clc1cccc2c(OCCc3ccccc3)ccnc12', 'pest or weed control at 400 ppm', '90 to 100%'),
  ('CC(COc1ccnc2c(F)cccc12)c1ccccc1 (stereo not drawn)', 'pest or weed control at 400 ppm', '0 to 19%'),
  ('COc1ccccc1CCOc1ccnc2ccccc12 [Example 229, 4-[2-(2-methoxyphenyl)ethoxy]quinoline]', 'pest or weed control at 400 ppm', '20 to 89%'),
  ('Clc1ccc2c(OCCc3ccc(-c4ccccc4)cc3)ccnc2c1', 'pest or weed control at 400 ppm', '0 to 19%'),
  ('Cc1ccc(CCOc2ccnc3cc(F)ccc23)cc1', 'pest or weed control at 400 ppm', '20 to 89%');

pest or weed control at 400 ppm reading for Fc1cccc2c(OCCc3ccc4ccccc4c3)ccnc12 : 90 to 100%

pest or weed control at 400 ppm reading for Fc1cccc2c(OCCc3ccc(-c4ccccc4)cc3)ccnc12 : 90 to 100%

pest or weed control at 400 ppm reading for Fc1cccc2c(OCCc3cccc4ccccc34)ccnc12 : 20 to 89%

pest or weed control at 400 ppm reading for Fc1cccc2c(CCCc3ccc(Cl)cc3)ccnc12 : 20 to 89%

====

# reported mortality at 200 ppm; entries follow
- Test system: Twospotted spider mites (Tetranychus urticae Koch)
- procedure summary: Mite/insect screen, SM
- Format: in vivo
- condition: Tetranychus urticae, foliar, percent mortality; rate 200 ppm, foliar spray on squash; read-out: SM RESULTS %

Examples with answers:
INSERT INTO results (compound, tested_target, readout_kind, test_value) VALUES
  ('Fc1cccc2c(NCCC3CCCCC3)ccnc12', 'Twospotted spider mites (Tetranychus urticae Koch)', 'mortality at 200 ppm', '0%'),
  ('Fc1ccc(CCOc2ccnc3c(F)cccc23)cc1', 'Twospotted spider mites (Tetranychus urticae Koch)', 'mortality at 200 ppm', '0%'),
  ('Clc1ccc2c(NCCC3=CCCCC3)ccnc2c1', 'Twospotted spider mites (Tetranychus urticae Koch)', 'mortality at 200 ppm', '0%'),
  ('Cc1cc(C)c2nccc(NCCC3CCCCC3)c2c1', 'Twospotted spider mites (Tetranychus urticae Koch)', 'mortality at 200 ppm', '0%'),
  ('Cc1ccc(CCOc2ccnc3c(F)cccc23)cc1', 'Twospotted spider mites (Tetranychus urticae Koch)', 'mortality at 200 ppm', '0%'),
  ('Fc1cccc2c(OCCCC(Br)CBr)ccnc12 (centres unmarked)', 'Twospotted spider mites (Tetranychus urticae Koch)', 'mortality at 200 ppm', '0%'),
  ('Cc1ccc(CCOc2cc(Cl)nc3c(F)cccc23)cc1', 'Twospotted spider mites (Tetranychus urticae Koch)', 'mortality at 200 ppm', '0%'),
  ('CC(C)(C)c1ccc(CCOc2ccnc3cc(Cl)ccc23)cc1', 'Twospotted spider mites (Tetranychus urticae Koch)', 'mortality at 200 ppm', '90%'),
  ('CC(Cc1cccs1)Nc1ccnc2c(F)cccc12 (centres unmarked)', 'Twospotted spider mites (Tetranychus urticae Koch)', 'mortality at 200 ppm', '0%'),
  ('FC(F)(F)c1ccc2c(OCCc3ccccc3)ccnc2c1', 'Twospotted spider mites (Tetranychus urticae Koch)', 'mortality at 200 ppm', '0%');

mortality at 200 ppm reading for c1csc(CCOc2ccnc3ccccc23)c1 [Example 245, 4-[2-(2-thienyl)ethoxy]quinoline] : 0%

mortality at 200 ppm reading for CC(CCOc1ccnc2c(F)cccc12)CC(C)(C)C (centres unmarked) : 100%

mortality at 200 ppm reading for Fc1cccc2c(CCCc3ccccc3)ccnc12 : 100%

mortality at 200 ppm reading for Fc1cccc2c(NCCc3ccc(OCc4ccccc4)cc3)ccnc12 : 0%

mortality at 200 ppm reading for Fc1ccc2nccc(NCCC3=CCCCC3)c2c1 : 0%

====

- System: Twospotted spider mites (Tetranychus urticae Koch)
- procedure summary: Mite/insect screen, SM
- Format: in vivo
- condition: Tetranychus urticae, foliar, percent mortality; rate 400 ppm, foliar spray on squash; read-out: SM RESULTS %
readout kind: mortality at 400 ppm (%)
Report the value in % with no unit label.

Examples with answers:
INSERT INTO assay_data (record_smiles, tested_target, test_value) VALUES
  ('CC(C)c1ccccc1CCOc1ccnc2c(F)cccc12', 'Twospotted spider mites (Tetranychus urticae Koch)', 0),
  ('Fc1cccc2c(OCCCCCCOc3ccccc3)ccnc12', 'Twospotted spider mites (Tetranychus urticae Koch)', 0),
  ('Clc1ccc(CCNc2ccc3nccc(NCCc4ccc(Cl)cc4)c3c2)cc1', 'Twospotted spider mites (Tetranychus urticae Koch)', 0),
  ('COc1ccc2nc(C)cc(NCCc3cccc(Oc4ccccc4)c3)c2c1', 'Twospotted spider mites (Tetranychus urticae Koch)', 0);

Next:
mortality at 400 ppm reading for Fc1cccc2c(CCCc3ccccc3)ccnc12 : 100

====

- Tested on: Puccinia recondita tritici (leaf rust)
- procedure summary: Test 1 greenhouse foliar spray screen, leaf rust on wheat
- Type: in vivo
- condition: Puccinia recondita, foliar, Test 1, foliar spray on wheat; disease control rating at 400 ppm / 100 ppm
readout kind: pest or weed control at 400 ppm

Examples with answers:
INSERT INTO assay_data (record_smiles, tested_target, test_value) VALUES
  ('Fc1cccc2c(OCCc3cccc(Cl)c3)ccnc12', 'Puccinia recondita tritici (leaf rust)', '90 to 100%'),
  ('Fc1cccc2c(OCCCc3ccc(Oc4ccccc4)cc3)ccnc12', 'Puccinia recondita tritici (leaf rust)', '0 to 19%'),
  ('Fc1cccc2c(CCCc3ccc(Cl)cc3)ccnc12', 'Puccinia recondita tritici (leaf rust)', '90 to 100%'),
  ('Clc1ccccc1CCOc1ccnc2c(Cl)cccc12', 'Puccinia recondita tritici (leaf rust)', '90 to 100%');

Reported Puccinia recondita tritici (leaf rust) pest or weed control at 400 ppm for item Fc1ccc(CCOc2ccnc3cc(Cl)ccc23)cc1 was 20 to 89%

Reported Puccinia recondita tritici (leaf rust) pest or weed control at 400 ppm for item Cc1cc(OCCC2CCCCC2)c2cc(F)ccc2n1 was 0 to 19%

====

- Test system: Puccinia recondita tritici (leaf rust)
- procedure summary: Test 1 greenhouse foliar spray screen, leaf rust on wheat
- Format: in vivo
- condition: Puccinia recondita, foliar, Test 1, foliar spray on wheat; disease control rating at 400 ppm / 100 ppm
readout kind: pest or weed control at 400 ppm

Examples with answers:
INSERT INTO measurements (molecule, tested_target, test_value) VALUES
  ('CC(COc1ccnc2c(F)cccc12)c1ccccc1 (stereo not drawn)', 'Puccinia recondita tritici (leaf rust)', '90 to 100%'),
  ('Clc1cccc2c(NCCCCc3ccccc3)ccnc12', 'Puccinia recondita tritici (leaf rust)', '20 to 89%'),
  ('Fc1ccc2c(OCCc3ccc(Cl)cc3)ccnc2c1', 'Puccinia recondita tritici (leaf rust)', '90 to 100%'),
  ('Cc1cc(OCCc2ccc(C(C)(C)C)cc2)c2cc(Cl)ccc2n1', 'Puccinia recondita tritici (leaf rust)', '20 to 89%'),
  ('Fc1cccc2c(OCCc3ccccc3C(F)(F)F)ccnc12', 'Puccinia recondita tritici (leaf rust)', '90 to 100%');

pest or weed control at 400 ppm reading for Cc1ccc(CCOc2ccnc3cc(Cl)ccc23)cc1 : 20 to 89%

pest or weed control at 400 ppm reading for CC(C)(C)c1ccc(CCCNc2ccnc3c(F)cccc23)cc1 : 20 to 89%

pest or weed control at 400 ppm reading for Fc1cccc2c(CCCc3cccc(C(F)(F)F)c3)ccnc12 : 90 to 100%

pest or weed control at 400 ppm reading for c1ccc(CCCc2ccnc3ccccc23)cc1 : 90 to 100%

====

- Tested on: southern armyworm (Spodopetra eridania Cramer)
- procedure summary: Mite/insect screen, SAW
- Type: in vivo
- condition: percent mortality; SAW, SM & MA RATE 200 PPM
# reported SAW RESULTS %; entries follow
Report the value in % with no unit label.

Examples with answers:
INSERT INTO assay_data (compound, unit_tag, test_value) VALUES
  ('O=[N+]([O-])c1ccc(CCNc2ccnc3c(F)cccc23)cc1 [Example 117]', '%', 0),
  ('Clc1cccc2c(NCCc3ccc4ccccc4c3)ccnc12 [Example 156]', '%', 0),
  ('Fc1cccc2c(NCCc3nc(-c4ccccc4)cs3)ccnc12 [Example 154]', '%', 0),
  ('Fc1cccc2c(NCCc3ccc(Cl)cc3)ccnc12 [Example 96]', '%', 100);

SAW RESULTS % reading for Fc1cccc2c(NCCc3cccc(C(F)(F)F)c3)ccnc12 [Example 95] : 40

====

- System: southern armyworm (Spodopetra eridania Cramer)
- procedure summary: Mite/insect screen, SAW
- Type: in vivo
- condition: percent mortality; SAW, SM & MA RATE 200 PPM
# reported SAW RESULTS %; entries follow
Report the value in % with no unit label.

Examples with answers:
INSERT INTO results (compound, unit_tag, test_value) VALUES
  ('Cc1ccc(CCNc2ccnc3c(F)cccc23)cc1', '%', 0),
  ('Fc1cc(F)c2nccc(NCCc3ccsc3)c2c1', '%', 0);

SAW RESULTS % reading for c1ccc2cc(CCNc3ccnc4ccccc34)ccc2c1 [Example 152, N-[2-(2-naphthyl)ethyl]-4-quinolinamine] : 0
